Origin of values: ChEMBL document CHEMBL4665783

Assayed System: Telomeric repeat-binding factor 2 (Homo sapiens, UniProt Q15554)
Sequence (Q15554 whole entry, the tested form may be a part): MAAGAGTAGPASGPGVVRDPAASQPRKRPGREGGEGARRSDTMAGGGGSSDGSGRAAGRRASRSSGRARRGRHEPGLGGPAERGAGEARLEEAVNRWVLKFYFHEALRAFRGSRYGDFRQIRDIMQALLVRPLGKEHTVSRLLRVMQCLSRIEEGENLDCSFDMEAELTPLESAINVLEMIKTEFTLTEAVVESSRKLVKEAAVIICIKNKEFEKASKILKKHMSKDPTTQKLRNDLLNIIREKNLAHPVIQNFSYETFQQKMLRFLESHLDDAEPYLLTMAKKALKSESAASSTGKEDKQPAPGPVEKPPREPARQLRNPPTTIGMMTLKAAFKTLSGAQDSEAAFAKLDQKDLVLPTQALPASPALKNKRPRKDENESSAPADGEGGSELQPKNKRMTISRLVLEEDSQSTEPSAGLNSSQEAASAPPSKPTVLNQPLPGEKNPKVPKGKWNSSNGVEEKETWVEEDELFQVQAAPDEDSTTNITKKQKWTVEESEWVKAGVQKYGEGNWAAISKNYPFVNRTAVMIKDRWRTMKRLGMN
Measurement Description: Binding affinity to TRFH domain of TRF2 (residues 42 to 245) (unknown origin) by FP based assay
Property Label: Ki (nM)
Just the number please, in nM, no unit attached.

Return reported Ki; argument: `Ac-LALKYLLTPV-NH2`
330
